molecular target: ErbB-4 receptor-Ig fusion (human, UniProt Q15303 26-651; Q15303 26-640); assay: phage ELISA, competition with soluble ErbB-4-Ig
Sequence (Q15303 other isoform, or with tags, fused parts or gaps): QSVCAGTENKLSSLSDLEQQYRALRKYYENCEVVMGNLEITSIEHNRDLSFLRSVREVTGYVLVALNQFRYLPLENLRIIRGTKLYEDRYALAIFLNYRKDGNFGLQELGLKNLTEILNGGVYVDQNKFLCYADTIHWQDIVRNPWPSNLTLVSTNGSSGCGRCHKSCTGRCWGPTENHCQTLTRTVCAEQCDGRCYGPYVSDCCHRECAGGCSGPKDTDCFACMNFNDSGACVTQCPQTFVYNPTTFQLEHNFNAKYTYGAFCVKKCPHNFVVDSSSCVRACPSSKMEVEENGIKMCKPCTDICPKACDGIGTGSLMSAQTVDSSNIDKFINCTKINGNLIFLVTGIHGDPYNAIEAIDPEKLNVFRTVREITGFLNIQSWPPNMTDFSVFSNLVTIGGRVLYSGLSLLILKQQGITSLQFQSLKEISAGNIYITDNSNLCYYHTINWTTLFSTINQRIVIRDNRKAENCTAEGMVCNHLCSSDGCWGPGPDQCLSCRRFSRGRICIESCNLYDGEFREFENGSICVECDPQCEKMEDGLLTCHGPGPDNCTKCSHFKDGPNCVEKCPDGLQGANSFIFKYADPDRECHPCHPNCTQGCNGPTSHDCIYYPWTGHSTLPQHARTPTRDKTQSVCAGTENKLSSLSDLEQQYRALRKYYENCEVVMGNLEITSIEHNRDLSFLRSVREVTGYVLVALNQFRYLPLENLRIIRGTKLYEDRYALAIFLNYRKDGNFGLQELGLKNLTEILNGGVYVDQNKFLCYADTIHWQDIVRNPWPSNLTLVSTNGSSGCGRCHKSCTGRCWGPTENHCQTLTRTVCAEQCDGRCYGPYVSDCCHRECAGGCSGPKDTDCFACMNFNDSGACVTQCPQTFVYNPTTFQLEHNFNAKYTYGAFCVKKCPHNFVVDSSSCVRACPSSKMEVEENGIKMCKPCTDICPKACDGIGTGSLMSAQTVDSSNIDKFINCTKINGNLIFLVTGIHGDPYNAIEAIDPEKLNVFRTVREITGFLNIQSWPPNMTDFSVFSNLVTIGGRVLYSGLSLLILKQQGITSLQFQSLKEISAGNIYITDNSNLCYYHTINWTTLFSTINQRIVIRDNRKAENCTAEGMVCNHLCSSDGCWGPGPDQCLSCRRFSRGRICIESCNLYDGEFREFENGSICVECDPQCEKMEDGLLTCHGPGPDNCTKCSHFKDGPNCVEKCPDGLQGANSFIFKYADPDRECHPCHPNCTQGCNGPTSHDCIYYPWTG
quantity.name: pEC50
Numbers only, as −log10 of the molar value.

Qu. Please look up its pEC50: HRG8 (HRG-β1 177-228 fused via (GGGS)3 to pIII 323, displayed on phage) (ligand, human, not shown: large carriers, monovalent phage display; also called pHRG8-g3; wild-type HRG-β1 EGF-phage) SHLVKCAEKEKTFCVNGGECFMVKDLSNPSRYLCKCPNEFTGDRCQNYVMASGGGSGGGSGGGS
Ans. 6.79

Attribution: patent US20030129688A1
